Overview of recorded EC50, CreLuc assay, 0.5% hP for various binders
- TGT: human GLP-1 receptor (human, UniProt P43220 24-463)
- TEST_NAME: cell-based or functional assay
Starred links: 1 amine or outer side, 2 acyl side, 3 side chain; linkers in the order of their positions; H or OH if unused. Non-standard residues stand in square brackets, D forms with d. Groups on a side chain read outwards from the residue. No end group written: not given here. *: point of attachment. C20 diacid = O=C(O)CCCCCCCCCCCCCCCCCCC(=O)*; γGlu = O=C(O)[C@H](CCC(=O)[*:2])N[*:1]; εLys = N[C@@H](CCCCN[*:1])C(=O)[*:2]; Aib = CC(C)(N)C(=O)O

# BINDER, UNIT_DESCRIPTOR, EC50, CreLuc assay, 0.5% hP
data = [
    ("YXEGTFTSDYSIXLAAAAQXAFVEWLIKGGPSSGASLRHYYNWLTRQRY (Aib at 2, 13, 20; K28 side chain: C20DA-gGlu-gGlu-gGlu-gGlu-gGlu-gGlu-eLys; C-terminal NH2) [Compound 20]", "nM", 0.87),
    ("Y[Aib]EGTFTSDYSI[Aib]LEKQAQ[Aib]AFVQWLIK([εLys-γGlu-γGlu-γGlu-γGlu-γGlu-C20 diacid])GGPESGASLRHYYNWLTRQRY-NH2 (also: TFA salt) [Compound 61]", "nM", 0.11),
    ("Y[Aib]EGTFTSDYSI[Aib]LEKQAQ[Aib]AFVEWLIK([εLys-γGlu-γGlu-γGlu-γGlu-γGlu-C20 diacid])GGPESPASLRHYYNWLTRQRY-NH2 (also: TFA salt) [Compound 70]", "nM", 0.3),
    ("YXEGTFTSDYSIXLEKQAQXEFVQWLIKGGPSSGASLRHYYNWLTRQRY (Aib at 2, 13, 20; K28 side chain: C20DA-gGlu-gGlu-gGlu-gGlu-gGlu-OEG-OEG; C-terminal NH2) [Compound 36]", "nM", 0.28),
    ("Y[Aib]EGTFTSDYSI[Aib]LEKQAQ[Aib]AFVEWLIKGGPESPASLRHYYNWLTRQRY-NH2 (not fully specified (residue 28); also: TFA salt) [Compound 64]", "nM", 0.29),
    ("YXEGTFTSDYSIXLEKQAQXAFVEWLIKGGPSSGASXRHYYNWLTXQRY (Aib at 2, 13, 20, 37; hArg 46; DTyr 49; K28 side chain: C20DA-gGlu-gGlu-gGlu-gGlu-gGlu-gGlu-eLys; C-terminal NH2) [Compound 26]", "nM", 0.07),
    ("Y[Aib]EGTFTSDYSI[Aib]LEEEAQ[Aib]AFVQWLIK([εLys-εLys-γGlu-γGlu-γGlu-γGlu-γGlu-C20 diacid])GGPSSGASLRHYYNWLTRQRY-NH2 (also: TFA salt) [Compound 7]", "nM", 0.13),
    ("YXEGTFTSDYSIXLEKQAQXAFVEWLIKGGPSSYVSIRHYYNWLTRQRY (Aib at 2, 13, 20; K28 side chain: C20DA-gGlu-gGlu-gGlu-gGlu-gGlu-gGlu-eLys; C-terminal NH2) [Compound 9]", "nM", 0.46),
    ("Y[Aib]EGTFTSDYSI[Aib]LEKQAQ[Aib]EFVQWLIKGGPSSGASLRHYYNWLTRQRY-NH2 (not fully specified (residue 28); also: TFA salt) [Compound 28]", "nM", 0.22),
    ("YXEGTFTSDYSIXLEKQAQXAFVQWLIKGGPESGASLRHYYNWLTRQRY (Aib at 2, 13, 20; K28 side chain: C18DA-gGlu-gGlu-gGlu-gGlu-gGlu; C-terminal NH2) [Compound 53]", "nM", 0.09),
    ("YXEGTFTSDYSIXLEKQAQXAFVEWLIKGGPSSGESXRHYYNWLTRQRY (Aib at 2, 13, 20, 37; K28 side chain: C20DA-gGlu-gGlu-gGlu-gGlu-gGlu-gGlu-eLys; C-terminal NH2) [Compound 49]", "nM", 0.12),
    ("YXEGTFTSDYSIXLEKQAQXAFVEWLIKGGPSSGASXRHYXNWLTRQRY (Aib at 2, 13, 20, 37, 41; K28 side chain: C20DA-gGlu-gGlu-Glu-gGlu-gGlu-gGlu-eLys; C-terminal NH2) [Compound 76]", "nM", 0.1),
    ("YXEGTFTSDYSIXLEKQAQXAFVQWLIKGGQSSYASLRHYYNWLTRQRY (Aib at 2, 13, 20; K28 side chain: C20DA-gGlu-gGlu-gGlu-gGlu-gGlu-Glu-eLys; C-terminal NH2) [Compound 22]", "nM", 0.45),
    ("YXEGTFTSDYSIXLEKQAQXAFVQWLIKGGPRYYASLRHYYNWLTRQRY (Aib at 2, 13, 20; K28 side chain: C20DA-gGlu-gGlu-gGlu-gGlu-gGlu-gGlu-eLys; C-terminal NH2) [Compound 14]", "nM", 0.4),
    ("YXEGTFTSDYSIXLEKQAQXAFVEWLIKGGPSSPESLRHYYNWLTRQRY (Aib at 2, 13, 20; K28 side chain: C20DA-gGlu-gGlu-gGlu-gGlu-gGlu-gGlu-eLys; C-terminal NH2) [Compound 73]", "nM", 0.19),
    ("YXEGTFTSDYSIXLEKQAQXAFVEWLIKGGPSSGVSIRHYYNWLTRQRY (Aib at 2, 13, 20; K28 side chain: C20DA-gGlu-gGlu-gGlu-gGlu-gGlu-gGlu-eLys; C-terminal NH2) [Compound 27]", "nM", 0.1),
    ("Y[Aib]EGTFTSDYSI[Aib]LEKQAE[Aib]AFVQWLIKGGPSEPASLRHYYNWLTRQRY-NH2 (not fully specified (residue 28); also: TFA salt) [Compound 54]", "nM", 0.22),
    ("YXEGTFTSDYSIXLEKQAQXAFVEWLIKGGPSSPESXRHYYNWLTRQRY (Aib at 2, 13, 20, 37; K28 side chain: C20DA-gGlu-gGlu-gGlu-gGlu-gGlu-gGlu-eK; C-terminal NH2) [Compound 10]", "nM", 0.11),
    ("YXEGTFTSDYSIXLEKQAQXAFVEWLIKGGPSSYESLRHYYNWLTRQRY (Aib at 2, 13, 20; K28 side chain: C20DA-gGlu-gGlu-gGlu-gGlu-gGlu-gGlu-eLys; C-terminal NH2) [Compound 50]", "nM", 0.13),
    ("YXEGTFTSDYSIXLEKQAQXAFVEWLIKGGPSSGASLRHYYNWLTXQRY (Aib at 2, 13, 20; hArg 46; DTyr 49; K28 side chain: C20DA-gGlu-gGlu-gGlu-gGlu-gGlu-gGlu-eLys; C-terminal NH2) [Compound 71]", "nM", 0.14),
]
